- Tested on: NCI-H226 lung
- PROCEDURE TEXT: NCI tumour cell line growth inhibition, 48 h
Task for the reader: assign each of the following compounds its reported TGI.

compound="FC(F)(F)c1ccc2c(c1)nc(-c1ccccc1)n2CC1CCCN2CCCCC12 (configuration not stated)" assay_value="65.9 µM"
compound=CC1=C(C)C(=O)C(C2=C(C3=CC(=O)C(C)=C(C)C3=O)C(=O)C(C)=C(C)C2=O)=CC1=O assay_value="31.8 µM"
compound="NC(=O)C1CCCNC1 (configuration not stated)" assay_value="> 100 µM"
compound="O=c1[nH]cnc2c1ncn2C1CCC(CO)O1 (configuration not stated)" assay_value="> 1000 µM"
compound=O=C1c2cccc3cc4ccccc4c(c23)C(=O)N1CCNCCN1C(=O)c2cccc3cc4ccccc4c(c23)C1=O assay_value="6.12 µM"

Would you be so kind as to report TGI for each listed record?
1. CCCCCCCCCCCCCCCCOCC(Cl)CP(=O)(O)OP(=O)(O)OCC1OC(n2cnc3c(N)ncnc32)C(O)C1O (configuration not stated)
2. CN1C(=O)C(/C=N/NC(=O)c2cccnc2)C(N)N(C)C1=O (configuration not stated)
3. CCOc1ccccc1/C=C(/C#N)C(N)=O

Return:
["> 100 µM", "> 100 µM", "> 100 µM"]

Would you be so kind as to report TGI for each listed record?
1. CCOC(=O)NC(NCC(O)c1ccccc1)(C(F)(F)F)C(F)(F)F (configuration not stated)
2. Cn1c(C2CCCc3c2c2ccccc2n3C)cc2ccccc21 (configuration not stated)
3. CS(=O)(=O)OCOS(C)(=O)=O
4. Cc1cc(=O)[nH]c(-n2[nH]c3c(c2=O)CCCC3)n1
5. COc1cccc2c1C(=O)c1c(O)c3c(c(O)c1C2=O)C[C@@](O)(C(=O)CO)C[C@@H]3OC1CC(N(C)C)C(O)C(C)O1 (some centres not stated)
6. CC[C@@]1(O)C(=O)OCc2c1cc1n(c2=O)Cc2c-1nc1ccccc1c2/C=N/NC(=O)C[N+](C)(C)C

Return:
1. > 100 µM
2. > 318 µM
3. > 100 µM
4. > 100 µM
5. 0.0814 µM
6. 31.8 µM

Would you be so kind as to report TGI for each listed record?
1. Clc1ccc(-c2nc3ccc(Cl)cc3[nH]2)cc1
2. C=CCOC1=C(OC(C)=O)C(=O)OC1C1COC(C)(C)O1 (configuration not stated)
3. Clc1ccc(N=C2c3ccccc3CN2c2ccc(Cl)cc2)cc1
4. Cc1ccc(O)c(-c2cc(-c3cccc(Br)c3)c(C#N)c(N)n2)c1
5. Cc1cccc(NS(=O)(=O)c2ccc3c(c2)OCCOCCOCCOCCO3)c1
6. COc1ccc(-c2cc(C(=O)N3N=C(c4ccc(N)cc4)CC3c3ccc(Cl)cc3)c3ccccc3n2)cc1 (configuration not stated)
7. C1C[OH+]CCNCC[OH+]CC[OH+]CCN1.O.[Cl-].[Pt+4]

Return:
> 100 µM
> 100 µM
> 100 µM
44.1 µM
> 100 µM
> 100 µM
> 100 µM

Enquiry: Respond only with TGI recorded for COC(=O)/C(C#N)=C1\CCC(OC)N1 (configuration not stated)
Return: > 100 µM
